- system_tested: T1, recombinant human HER2 extracellular domain protein (human, UniProt P04626 23-652)
- T1 construct: range 23-652; Range is printed for the immunogen/panning protein; also called ErbB2; recombinant HER2 protein
- experiment_description: BLI (ForteBio)
reported_metric: kon (M⁻¹ s⁻¹)

Hu2117HK (Fc fusion, Hu2117-H1 + Hu2117-K1; also called hu2117-H1K1; humanized single-chain antibody Hu2117HK; not shown: human IgG1 Fc) scFv: EVQLVESGGGLVQPGGSLRLSCAASGFTYSSYGMSWVRQAPGKGLEWVASISGGGSYTKYPDSVKGRFTISRDNSKNTLYLQMNSLRAEDTAVYYCARDYAGFFDVWGQGTLVTVSSGGGGSGGGGSGGGGSDIQMTQSPSSLSASVGDRVTITCRSSQSLVHSNGNTYLHWYQQKPGKAPKLLIYKVSNRFSGVPSRFSGSGSGTDFTLTISSLQPEDFATYFCSQSTHVPYTFGQGTKVEIK: 16600
